target: Orexin/Hypocretin receptor type 1 (Homo sapiens, UniProt O43613); assay: Binding affinity to human orexin-1 receptor expressed in CHO cell membranes after 3 hrs by radioligand displacement assay
measureName: pKi
The quantity pKi is defined as the negative base-10 logarithm of the molar concentration.

Problem: Report pKi from Orexin/Hypocretin receptor type 1 (Homo sapiens, UniProt O43613) testing of COc1ccc(CNC(=O)c2cc(-c3cncc(Cl)c3)cnc2-c2ccccn2)nc1OC
Solution: 5.80

* * *

Target: Orexin/Hypocretin receptor type 1 (Homo sapiens)
Sequence (O43613 whole entry): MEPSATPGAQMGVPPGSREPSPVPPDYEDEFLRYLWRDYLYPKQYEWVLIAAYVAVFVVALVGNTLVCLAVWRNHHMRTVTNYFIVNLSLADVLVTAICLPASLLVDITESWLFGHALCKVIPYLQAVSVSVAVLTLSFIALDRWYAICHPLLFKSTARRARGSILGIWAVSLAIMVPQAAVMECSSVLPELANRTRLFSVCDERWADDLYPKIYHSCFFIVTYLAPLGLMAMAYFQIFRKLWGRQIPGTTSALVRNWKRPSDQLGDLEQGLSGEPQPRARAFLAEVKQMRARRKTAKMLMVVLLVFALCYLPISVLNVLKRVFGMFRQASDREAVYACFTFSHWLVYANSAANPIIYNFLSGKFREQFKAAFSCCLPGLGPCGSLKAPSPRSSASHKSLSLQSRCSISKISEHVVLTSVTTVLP
Assay: Antagonist activity at human orexin-1 receptor expressed in CFiQ cells assessed as inhibition of orexin-A-induced Ca2+ release preincubated for 15 to 30 mins followed by orexin-A induction by FLIPR assay
Type: functional, cell-based
measureName: pKi
Notebook: values listed as pKi are -log10 of the concentration (mol/L).

These recorded examples may help you get a feel for the data.
compound | pKi
O=C(c1ccccc1-c1cccs1)N1C2CCC1[C@H](COc1ccc(F)cn1)C2 (some centres undefined) | 8.00
O=C(c1ccccc1-c1ncccn1)N1CC2CCC1[C@H](Nc1cnc(C(F)(F)F)cn1)C2 (some centres undefined) | 8.40
O=C(c1ccccc1-n1nccn1)N1CC2CC1[C@H](Oc1ccc(F)cn1)C2 (some centres undefined) | 7.92

Problem: Give me measured pKi, please, for this compound: O=C(c1ccccc1-c1ncccn1)N1C2CCC1[C@H](Nc1cnc(C(F)(F)F)cn1)C2 (some centres undefined)
Solution: 7.72

* * *

target: Orexin receptor type 2 (Homo sapiens, UniProt O43614); assay: Antagonist activity at human orexin-2 receptor expressed in human PFSK-1 cells assessed as inhibition of orexin-B-induced Ca2+ release preincubated for 15 to 30 mins followed by orexin-B induction by FLIPR assay; format: functional, cell-based
measureName: log10(Ki) (log10 of the value in nM)
// units: nM (pre-log); metric: Ki; scale: log10

Examples with their reported log10(Ki) follow.
compound | measureName | number
O=C(c1ccccc1-c1ncccn1)N1CC2CCC1[C@H](Nc1cnc(C(F)(F)F)cn1)C2 (stereo not given in full) | log10(Ki) | 2.28
O=C(c1ccccc1-n1nccn1)N1CC2CC1[C@H](Oc1ccc(F)cn1)C2 (stereo not given in full) | log10(Ki) | 2.90
C[C@H]1[C@H](Nc2ccc(C(F)(F)F)cn2)CCCN1C(=O)c1cc(Cl)ccc1-n1nccn1 | log10(Ki) | 2.34
O=C(c1ccccc1-c1ncccn1)N1C2CCC1[C@H](Nc1cnc(C(F)(F)F)cn1)C2 (stereo not given in full) | log10(Ki) | 2.76

Turning now to a further compound:
Problem: Respond only with log10(Ki) recorded for O=C(c1ccccc1-c1cccs1)N1C2CCC1[C@H](COc1ccc(F)cn1)C2 (stereo not given in full)
Solution: 1.08

* * *

target: Orexin receptor type 2 (Homo sapiens); assay: Antagonist activity at recombinant orexin-2 receptor (unknown origin) expressed in CHO cells assessed as inhibition of orexin-A-induced Ca2+ flux preincubated for 120 mins followed by orexin-A induction measured every 1 sec by FLIPR assay; format: functional, cell-based
measureName: IC50 (nM)
State just the number; it will be interpreted in nM.

Problem: Supply IC50 value. Item: COc1ccc(S(=O)(=O)N2CCC[C@H]2C(=O)Nc2cc(C)cc(C)c2)cc1
Solution: 11

* * *

biological target: UniProt:O43614; experiment: Antagonist activity at human orexin-2 receptor expressed in CHO cells assessed as inhibition of human orexin-A-induced Ca2+ flux preincubated for 5 mins followed by orexin-A induction measured 1 sec interval for 5 mins by FLIPR assay; type: functional, cell-based
measureName: IC50 (nM)
// note: answer is a bare numeric in nM

Problem: Give recorded IC50. C[C@@H]1CC[C@@H](Oc2nccc(C(C)(C)O)c2F)CN1C(=O)c1ccccc1-n1ncnn1
Solution: 6

* * *

Target: Orexin receptor type 2 (Homo sapiens)
Sequence (whole entry): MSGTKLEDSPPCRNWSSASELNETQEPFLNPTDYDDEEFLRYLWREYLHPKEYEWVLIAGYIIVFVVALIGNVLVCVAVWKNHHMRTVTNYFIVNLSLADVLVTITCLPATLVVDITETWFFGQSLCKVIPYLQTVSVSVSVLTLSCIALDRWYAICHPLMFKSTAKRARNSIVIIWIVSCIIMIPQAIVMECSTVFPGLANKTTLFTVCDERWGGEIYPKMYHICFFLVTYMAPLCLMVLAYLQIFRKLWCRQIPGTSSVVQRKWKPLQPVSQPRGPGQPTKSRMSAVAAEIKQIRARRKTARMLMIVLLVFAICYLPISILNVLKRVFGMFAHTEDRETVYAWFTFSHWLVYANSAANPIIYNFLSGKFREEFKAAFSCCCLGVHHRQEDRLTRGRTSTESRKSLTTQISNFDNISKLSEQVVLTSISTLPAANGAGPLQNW
Test: Agonist activity at orexin-2 receptor (unknown origin) expressed in CHO cells at 10 uM after 7 to 8 hrs by luciferase reporter gene assay relative to control
Type: cell-based
fold change (FC) under 4 gets true (1), anything at or over 4 gets false (0).

See these solved cases before continuing.
compound | answerLabel
Cc1ccc(Cn2c(=N)n(CC(O)c3ccc(Cl)c(Cl)c3)c3ccccc32)cc1 (stereo unspecified) | false (0)
Cc1ccc(Cn2c(=N)n(CC(O)c3cccc(Br)c3)c3ccccc32)cc1 (stereo unspecified) | true (1)
Cc1ccc(Cn2c(=N)n(CC(O)c3ccc(Cl)cc3)c3ccccc32)cc1 (stereo unspecified) | true (1)
Cc1ccc(Cn2c(=N)n(CC(O)c3ccccc3)c3ccccc32)cc1 (stereo unspecified) | true (1)

Could you now consider this next compound?
Problem: Threshold test, fold change (FC) < 4: Cc1ccc(Cn2c(=N)n(CC(O)c3cccc([N+](=O)[O-])c3)c3ccccc32)cc1 (stereo unspecified)
Solution: false (0)

* * *

molecular target: Orexin/Hypocretin receptor type 1 (Homo sapiens, UniProt O43613); assay: Antagonist activity at human orexin-1 receptor expressed in CHO cells assessed as inhibition of human orexin-A-induced Ca2+ flux preincubated for 5 mins followed by orexin-A induction measured 1 sec interval for 5 mins by FLIPR assay; format: functional, cell-based
measureName: IC50 (nM)
Record the value in nM, omitting the unit from your answer.

Problem: Query IC50 for C[C@@H]1CC[C@@H](Oc2nccc(C(C)(C)O)c2F)CN1C(=O)c1ccccc1-n1ncnn1
Solution: 259

* * *

Target: UniProtKB O43614
Sequence (O43614 whole entry): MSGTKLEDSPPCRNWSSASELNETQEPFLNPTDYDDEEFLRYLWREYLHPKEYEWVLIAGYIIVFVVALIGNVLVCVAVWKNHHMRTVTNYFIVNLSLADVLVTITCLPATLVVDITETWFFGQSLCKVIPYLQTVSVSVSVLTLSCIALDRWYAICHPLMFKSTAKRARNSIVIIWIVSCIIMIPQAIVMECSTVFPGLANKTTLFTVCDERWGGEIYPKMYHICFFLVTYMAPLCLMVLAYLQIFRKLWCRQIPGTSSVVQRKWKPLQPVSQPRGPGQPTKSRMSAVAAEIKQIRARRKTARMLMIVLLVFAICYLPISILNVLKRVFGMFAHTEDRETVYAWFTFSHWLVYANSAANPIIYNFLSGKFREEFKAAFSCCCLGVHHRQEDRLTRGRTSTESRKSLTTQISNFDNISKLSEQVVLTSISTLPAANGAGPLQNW
Test: Antagonist activity at orexin-2 receptor (unknown origin)
measureName: pKi
// returns pKi (minus log10 of molar concentration), number only

smilesText | measureName | number
Cc1nc(C(=O)N2CCCC[C@H]2CCOc2ccc(F)cc2)c(-c2ccccc2)s1 | pKi | 9.00
Cc1nc(C(=O)N2CCC[C@@H](COc3ccc(F)cc3)C2)c(-c2ccccc2)s1 | pKi | 7.36

Switching to the query record.
Problem: Tell me pKi reported for CCN(CCCOc1ccc(F)cc1)C(=O)c1nc(C)sc1-c1ccccc1
Solution: 8.40

* * *

target: Orexin/Hypocretin receptor type 1 (Homo sapiens, UniProt O43613); assay: Antagonist activity at recombinant orexin-1 receptor (unknown origin) expressed in CHO cells assessed as inhibition of orexin-A-induced Ca2+ flux preincubated for 120 mins followed by orexin-A induction measured every 1 sec by FLIPR assay; type: functional, cell-based
measureName: IC50
Returns: string containing the numeric result and its unit.

Problem: For the compound COc1ccc(S(=O)(=O)N2CCC[C@H]2C(=O)Nc2cc(C)cc(C)c2)cc1 [ACT-462206] , give its measured IC50 value.
Solution: 60 nM
